Recorded values, source paper PMC6325563.

Biological target: (α4)2(β2)3 nAChR (high sensitivity) (Rattus norvegicus, UniProt P09483+P12390, P09483:L285F)
Construct: gene Chrna4; subunits in pGEMhe, mRNA alpha4:beta2 1:10 injected in Xenopus laevis oocytes; pentamer
Experiment: two-electrode voltage clamp, Xenopus oocytes
Format: cell-based
Conditions: read-out: IC50 (μM (-)-menthol) ± SEM
Parameter: IC50 (µM)

compound="CC(C)[C@@H]1CC[C@@H](C)C[C@H]1O [(−)-menthol]" parameter=IC50 obs_value=211

---

Biological target: (α4)3(β2)2 nAChR (low sensitivity) (Rattus norvegicus, UniProt P09483+P12390, P09483:L285I)
Construct: gene Chrna4; subunits in pGEMhe, mRNA alpha4:beta2 10:1 injected in Xenopus laevis oocytes; pentamer
Sequence (P09483 31-630 L285I): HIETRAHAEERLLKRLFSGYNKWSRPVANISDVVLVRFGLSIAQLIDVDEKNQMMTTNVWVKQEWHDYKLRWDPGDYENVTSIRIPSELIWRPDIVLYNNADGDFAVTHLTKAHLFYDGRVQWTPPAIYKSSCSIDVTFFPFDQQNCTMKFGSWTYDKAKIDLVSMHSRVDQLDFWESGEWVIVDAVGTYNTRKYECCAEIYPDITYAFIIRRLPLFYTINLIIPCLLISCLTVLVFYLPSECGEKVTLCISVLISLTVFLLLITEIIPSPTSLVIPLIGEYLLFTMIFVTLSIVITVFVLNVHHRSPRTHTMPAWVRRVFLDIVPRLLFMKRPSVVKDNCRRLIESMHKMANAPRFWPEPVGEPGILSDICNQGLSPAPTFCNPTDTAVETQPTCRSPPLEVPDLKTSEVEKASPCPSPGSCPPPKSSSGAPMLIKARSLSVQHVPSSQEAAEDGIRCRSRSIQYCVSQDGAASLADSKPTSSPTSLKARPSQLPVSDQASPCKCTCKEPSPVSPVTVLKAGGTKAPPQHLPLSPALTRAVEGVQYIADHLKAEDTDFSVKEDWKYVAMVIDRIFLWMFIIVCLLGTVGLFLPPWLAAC
Sequence (P12390 25-500): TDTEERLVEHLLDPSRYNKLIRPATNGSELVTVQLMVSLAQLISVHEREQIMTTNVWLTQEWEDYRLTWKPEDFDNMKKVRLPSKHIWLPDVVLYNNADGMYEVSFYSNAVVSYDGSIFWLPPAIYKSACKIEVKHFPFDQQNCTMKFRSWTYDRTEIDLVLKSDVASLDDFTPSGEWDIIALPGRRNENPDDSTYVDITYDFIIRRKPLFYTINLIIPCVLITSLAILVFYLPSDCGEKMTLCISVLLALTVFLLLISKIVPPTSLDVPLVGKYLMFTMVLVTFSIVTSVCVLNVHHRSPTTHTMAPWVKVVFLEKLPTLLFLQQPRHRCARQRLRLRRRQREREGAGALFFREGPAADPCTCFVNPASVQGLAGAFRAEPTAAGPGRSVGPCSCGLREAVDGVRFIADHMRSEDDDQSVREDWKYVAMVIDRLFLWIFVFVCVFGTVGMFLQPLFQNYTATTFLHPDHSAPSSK
Assay: two-electrode voltage clamp, Xenopus oocytes
Assay type: cell-based
Details: read-out: IC50 (μM (-)-menthol) ± SEM
Parameter: IC50

molecule="CC(C)[C@@H]1CC[C@@H](C)C[C@H]1O [(−)-menthol]" parameter=IC50 obs_value="127 µM"
